Data provenance is the supplement of paper PMC10681739.

Target: RUNX1 (UniProt Q01196)
Sequence (Q01196 whole entry): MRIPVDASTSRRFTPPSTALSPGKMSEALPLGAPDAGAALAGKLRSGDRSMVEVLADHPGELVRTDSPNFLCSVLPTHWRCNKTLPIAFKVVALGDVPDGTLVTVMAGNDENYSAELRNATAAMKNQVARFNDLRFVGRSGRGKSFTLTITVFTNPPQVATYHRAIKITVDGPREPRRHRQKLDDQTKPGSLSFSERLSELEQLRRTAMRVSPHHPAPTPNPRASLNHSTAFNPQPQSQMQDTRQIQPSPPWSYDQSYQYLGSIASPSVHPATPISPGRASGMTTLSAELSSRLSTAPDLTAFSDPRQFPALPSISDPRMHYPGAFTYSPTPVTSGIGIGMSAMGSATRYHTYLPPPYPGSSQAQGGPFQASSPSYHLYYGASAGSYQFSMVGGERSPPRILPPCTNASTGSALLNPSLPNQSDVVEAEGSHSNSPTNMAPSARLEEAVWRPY
Experiment: RUNX1 binding intensity (PBM fluorescence), RUNX1 alone (arbitrary fluorescence units); higher = stronger binding
Details: RUNX1 concentration 2 nM; ETS1 concentration 0 nM
In this section we review reported RUNX1 binding intensity values for a set of sequences.

sequence	RUNX1 binding intensity
GTGAACTTCCTCCCCCACTGCCTATTTTTACCGCAG	1820
TCTTTGAGAAGCGGATGTGGTAAACTTGCCTCTGTT	801
CTGGTTTCCAACATCCTGTGGGCGGCCTGGTTTCAG	785
ATTACAGGAAGTATGTCCTCCTCTGCCTAACCACTG	831
AGCCTACATCCTGCACTGCTTAACCACAGCCCGCCT	1960
GGCGGCTTCCGGGATCTGCCTGGCGGTTGCTTTGTC	729
TACAACTTGCAACGGAAACCACTTCAGGTTCATTAC	847
AACTAGGCTTTTCTTTCCTGTGGTCCTTAAGGAGGC	929
ATGGTGTAGAGAGGATGTGGGCTTTAAGGTCAGAGA	706
TCAGAGACTTCCGCTCAGCAGCAGCTGCGGCCAGGC	671
GCTAGACAGGAAACAGTGAGCTTCTGTGGGCAGGAG	758
TCCTTAATGGTTCCGGCGGCAGGGACCGCAGCGACG	824

###

Target: RUNX1 (UniProt Q01196)
Test: RUNX1 binding intensity (PBM fluorescence) in presence of ETS1, normalised to RUNX1-only experiment (arbitrary fluorescence units); higher = stronger binding
Conditions: RUNX1 concentration 2 nM; ETS1 concentration 25 nM
measured_endpoint: RUNX1 binding intensity

sequence	numeric_readout
GGCCAGGCAGGAAGTCCCGCGCCACAAGCGGCCGTC	1230
ACCCTGAAATTACCCGGATGTGGTCCCCGCGCGCGC	1930
GACAGAGGAAACTAGGTGTGACAACCACAAACAGCT	785
CTTGCCACACTTCCTCTTGTTTTGAACCACTATATT	4740
TCTCGTCCGGTCCTTGCTCCCCCTCCCCGCAGCGCT	1980
ATTTCGCTGAAAACAGGAAACCACGAAGCCCAGATG	1250
TCCTAAAGCAGGAAATAGTGAGGCTACCGCAGTGTC	1090
ATCTTGGCCCATATCCTGTGGTGTTCTGCTAGAGGT	1290
CAAGTAATCTGCTCAGGAAGTGGTTTGAATAGAGGA	977
CGCCTACTCTACTTCCGCGGTCGGCCGGGTAAGGAC	2900
GGCGGTGACCGGAAGAGCTGAGTCACCGCAGGCGAC	1600
CCCACCCTCGCCGGAAGCCGAGCGGTTTCTACATCA	1540
ACAATAACAGGAAGTGGTGGGGACTGCGGTGACCTG	3340
GAAAACACAGGAAGCCGTCCGCGCAACCGCGTTGCA	1150
ACTTTAATAGAGTCCGGATGCGGTTAGGCTGACAGA	7430
TGCAGCCTATTTCCTCTAACCCGCAGATCCACTATG	2250
CAGAAAAGGCAGGAAGTGGTACAAACCACAAAAGGC	8000
GGGAGGTCACATCCTGCCCGCGGTCTCAGAAAAGCT	2080
CTCCTTCCTGTGTGTTACTCTTAAAAACCACAGAGG	3040
AAAACAACTCCAGGATGTGGTTTTACTCAGAATGTA	2710
CGGGGTTTCCTGGTGGCTGCGAGCGGTGGGGACGGC	1140
GTATGGGAAGTGATCTGGCTGCAAACCGCAAGAGAG	7290
CACCAGGACGCAACAGGAAACCACAAAGGCCTGAGA	5270
GCGCGGCCCGGAAGGGGGTAACCGCTGAGTCTTTGA	1010
GGCTGGCCTAGGAACTTCCGCCACAAGTCCCGCCCC	1390

###

ETS1 binding intensity values by entry
Target: ETS1 (UniProt P14921)
Sequence: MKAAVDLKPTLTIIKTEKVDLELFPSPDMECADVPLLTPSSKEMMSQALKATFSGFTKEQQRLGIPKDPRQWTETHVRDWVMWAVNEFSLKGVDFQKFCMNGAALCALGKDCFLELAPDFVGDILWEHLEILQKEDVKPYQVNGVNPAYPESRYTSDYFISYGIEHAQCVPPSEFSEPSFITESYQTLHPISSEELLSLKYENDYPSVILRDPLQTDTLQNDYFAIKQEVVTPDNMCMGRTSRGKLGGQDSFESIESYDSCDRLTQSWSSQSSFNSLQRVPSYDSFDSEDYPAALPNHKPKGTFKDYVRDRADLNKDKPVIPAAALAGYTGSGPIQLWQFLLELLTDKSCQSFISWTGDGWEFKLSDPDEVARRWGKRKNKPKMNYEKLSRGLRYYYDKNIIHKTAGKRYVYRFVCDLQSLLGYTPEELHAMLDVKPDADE
Assay: ETS1 binding intensity (PBM fluorescence), ETS1 alone (arbitrary fluorescence units); higher = stronger binding
Details: ETS1 concentration 1 nM; RUNX1 concentration 0 nM

sequence	ETS1 binding intensity
AATGGGCTTGGTTTCCTGTGGGTTTGTAGCTTTGTA	519
TACGGGAACTTCCTTTTCTTGTGGTGTGGCCGGGTC	571
TGGTTCCACCGACCGGAAGGGCCACAAGGATCCCCG	5280
CCCACTCCACTTCCGCCACCGCCGCAGCCGCCGCTG	1430
TCCAGCCGGACGCGATGCCTGGAGGCTGCGGGCGCC	328
GGGCCAGAGACGCCGGAAGTGACCGCGCGGTGCGCC	11700
TGAATCATCCTGAGTTACCCGTTCTGTAACCGCCCC	490
CCGCCCTAGAGCAGGAAATAGCGGTCAGCGCCAGCT	2740
AGCTGCGGAGCATCCGCTGCGGTCCTCGCCGAGACC	450
AAGGCAAACAGGAAATCATAACCACAAACCAGGAAC	2960
TGCTTCCCTTCCGTTCCGACAGCGAAAACCGCTGCC	532
AAGGCGGAGGAAGGGAAAATTGTGGTTGGGCAGAGG	511
TGCACGGTAAGCAGGAAGCTGCGGCCGAGCTGAGTC	2020
GCCACATATTTCCTGTGACAACCCTGTGGTGTGGCT	641
GCAAAGATACATCCTTCTCCCCACAGACTAAGTTTC	490
TGTCTCATTTCCTGTAGGTAACAGGCACCACAATAG	1550
ACCGGATGCCGGGGCACCGCCAGATGTGGCCACGAG	1500
CGAGCAGGAAGTGGCAAGATTTGATAGGCGGTCAGG	1970
GTGTTTCCTCTTTGTTTTGGGGCTGTGGTTGCCACA	414
GCGGCTGAGAACACAGGATGTGGCTTTTGGCAGATG	6080
GTCTTACTTCCTGTCCCCGCCCACCGCGACTGTCTT	2560
GATGCTTGTTCAGGATGCGGTTTCTTGCAGCAAGTT	674
CAGCTAGAGGAAGCGCTTCGCCCGCGAACCACAGGG	375
AATGGCGGGAAGTAAGAGGAATGTGGGCCTGACTGC	499
CGACCGGAACCACTCTGAGGCGCTGCCGCAGACACC	533

###

Target: ETS1 (UniProt P14921)
Sequence: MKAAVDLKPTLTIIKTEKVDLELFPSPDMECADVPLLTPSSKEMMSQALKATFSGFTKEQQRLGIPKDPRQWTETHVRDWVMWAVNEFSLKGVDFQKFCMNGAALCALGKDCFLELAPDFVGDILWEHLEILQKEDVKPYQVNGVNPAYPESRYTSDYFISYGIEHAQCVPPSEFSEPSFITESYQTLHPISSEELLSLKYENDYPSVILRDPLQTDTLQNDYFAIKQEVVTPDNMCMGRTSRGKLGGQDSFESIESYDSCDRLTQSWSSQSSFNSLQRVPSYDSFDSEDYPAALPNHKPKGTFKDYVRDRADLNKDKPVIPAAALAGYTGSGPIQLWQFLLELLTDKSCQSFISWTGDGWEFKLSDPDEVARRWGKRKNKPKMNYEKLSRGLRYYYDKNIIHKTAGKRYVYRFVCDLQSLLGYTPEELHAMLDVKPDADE
Experiment: ETS1 binding intensity (PBM fluorescence) in presence of RUNX1, normalised to ETS1-only experiment (arbitrary fluorescence units); higher = stronger binding
Conditions: ETS1 concentration 1 nM; RUNX1 concentration 25 nM

sequence	tested_on	ETS1 binding intensity
CCCTGCCATTTCCTGCCCAATACCGCGTATGCAACT	ETS1 (UniProt P14921)	1700
GTCCCACGCGACTTCCTGCGGGAAACATGGCGGCAT	ETS1 (UniProt P14921)	1820
CAGGTTGTTGAGGATGTGGAGAAACCGCAACCTCGT	ETS1 (UniProt P14921)	7360
GTGGGAGCGGAAGCCTGAGCGGCCTGCGGCCTCCGG	ETS1 (UniProt P14921)	1070
AGCACGCCGGGAAATGGAGTCTCAGGTGGTTTTTAA	ETS1 (UniProt P14921)	364
GTGCCCCGGACCTACGGATACCACACACAGACAGGC	ETS1 (UniProt P14921)	460
GAGTTCTAGACTACAGGATGTGGTTAGAAGAAAAGA	ETS1 (UniProt P14921)	56900
GCTCATTTATGCATCCTGTGGTCTGTGTGTGTTTCG	ETS1 (UniProt P14921)	831
GGGGACCGGAAAGGGAGGGGTGGGCCGCAGGCGCCG	ETS1 (UniProt P14921)	680
GACAGGAAGTGACCTCAATTTCCCCGGCCACAGAAA	ETS1 (UniProt P14921)	4280
GGCAACCGGCCCCGGAAGTTGCGGCAGGTGCGTCCA	ETS1 (UniProt P14921)	8090
GGTTTCGCTTCCGGGTTAGGCGGCCGCAGAAGCGTA	ETS1 (UniProt P14921)	1340
GCTGGGGCAGGAAGCTTCTAGGCCACAGACAGGACG	ETS1 (UniProt P14921)	1360
TCGTGTTCTCTTCCGTTCTGTGGTAGCTTTTTGGTA	ETS1 (UniProt P14921)	557
TCTGAGAATGCAGGATATGTGTGTGGTCTCTAGTCA	ETS1 (UniProt P14921)	1510
TGCCCTGACTTCCTGGTCCTGTGGTCAAGGATGGGG	ETS1 (UniProt P14921)	2810
CCACTGCCGGAAGGGGAACTGTGGGGGTGCGCGAGT	ETS1 (UniProt P14921)	963
CACCAGGACGCAACAGGAAACCACAAAGGCCTGAGA	ETS1 (UniProt P14921)	6500
AACAGAGACCCGGAAGTTGTGGGACGAAGCCAGGAC	ETS1 (UniProt P14921)	6420
TTAGATGTGCCTACATCCTGACCTCAAAAACCTCTG	ETS1 (UniProt P14921)	767
CCTCCTGGGAACTTCCTGCGGGGGCCGAAGCTGAAG	ETS1 (UniProt P14921)	660
GCGAGGAGACAACTTCCTTTTGTGGTCTGACCCTGG	ETS1 (UniProt P14921)	1590
AATCCCGGAAACGCGGATTCAGCGGAGCGCGGTGAC	ETS1 (UniProt P14921)	1500
GCTGCTGTAGTCGCTTCCTGCGGCCAGCCCGGGTTC	ETS1 (UniProt P14921)	528
CGACCGGAACCACTCTGAGGCGCTGCCGCAGACACC	ETS1 (UniProt P14921)	583
